# target-or-system: SARS-CoV-2 spike glycoprotein (Wuhan-Hu-1 strain) on pseudotyped virus particles (SARS-CoV-2 (Wuhan-Hu-1 strain), UniProt P0DTC2 14-1273)
# assay-procedure: cell-based or functional assay
observation-type: Pseudo-neutralization IC50 (Luciferase) (nM)
// note: answer is a bare numeric in nM

binder: Nb34 (VHH) VHH: DVQLVESGGGLVQAGGSLRLSCAASGFTFSNYVMYWGRQAPGKGREWVSGIDSDGSDTAYASSVKGRFTISRDNAKNTLYLQMNNLKPEDTALYYCVKSKDPYGSPWTRSEFDDYWGQGTQVTVSS
observation-type: Pseudo-neutralization IC50 (Luciferase)
endpoint-unit: nM
recorded-value: 2
--
binder: Nb20 (VHH) VHH: QVQLVESGGGLVQAGGSLRLSCAVSGAGAHRVGWFRRAPGKEREFVAAIGASGGMTNYLDSVKGRFTISRDNAKNTIYLQMNSLKPQDTAVYYCAARDIETAEYIYWGQGTQVTVSS
observation-type: Pseudo-neutralization IC50 (Luciferase)
endpoint-unit: nM
recorded-value: 0.114
--
binder: Nb16 (VHH) VHH: DVQLVESGGGLVQAGESLRLSCAASGDMFSSNAMAWYRQAPGKQRELVASITSGGNTNYADSVKGRFTISRDNAKNTVYLQMDSLKPEDTAVYYCNGVAYDYSWGRPRNFWGQGTQVTVSS
observation-type: Pseudo-neutralization IC50 (Luciferase)
endpoint-unit: nM
recorded-value: 1.57

# context switch: different binder, same Pseudo-neutralization IC50 (Luciferase)
Input line: Item Nb9 (VHH) VHH: HVQLVESGGGLVQTGGSLRLSCAFSGYTFSTFPTAWFRQAPGKEREFVAGIRWNGGSRDYTEYADFVKGRFTISRDNAKNMIYLQMISLKPEDTALYYCAASHGVVDGTSVNGYRYWGQGTQVTVSS has what recorded Pseudo-neutralization IC50 (Luciferase)?
Output line: 1.5

// provenance: patent US20240043505A1
